System: E. coli J53 Alone
Experiment: MIC determination, isogenic E. coli strains
Type: cell-based
Conditions: Escherichia coli, J53ALONE, 18 h, read-out: Mimimum Inhibitory Concentrations, J53 Alone
Kindly state MIC for each of the entries shown.
# unit: µg/mL | format: bare number

*Q* Retrieve MIC measured for Cn1c[n+](Cc2ccc(C=CC3=C(C(=O)O)N4C(=O)[C@@H](NC(=O)/C(=N\OC(C)(C)C(=O)O)c5csc(N)n5)[C@H]4SC3)cc2)c2cc(O)c(O)cc21 (mixture of isomers) and print it.
*A* 0.5

*Q* Please look at this compound and report its MIC: CC[N+]1(Cc2ccc(C=CC3=C(C(=O)O)N4C(=O)[C@@H](NC(=O)/C(=N\OC(C)(C)C(=O)O)c5csc(N)n5)[C@H]4SC3)cc2)CCc2cc(O)c(O)cc2C1 (mixture of isomers)
*A* 0.25

*Q* Look up and state reported MIC for C#CC[N+]1(Cc2ccc(C=CC3=C(C(=O)O)N4C(=O)[C@@H](NC(=O)/C(=N\OC(C)(C)C(=O)O)c5csc(N)n5)[C@H]4SC3)cc2)CCc2cc(O)c(O)cc2C1 (mixture of isomers)
*A* 0.13

*Q* Indicate its recorded MIC; the compound in question is CC(C)(O/N=C(\C(=O)N[C@@H]1C(=O)N2C(C(=O)O)=C(C=Cc3ccc(C[N+](C)(C)Cc4cc(O)c(O)c(Cl)c4)cc3)CS[C@H]12)c1csc(N)n1)C(=O)O (mixture of isomers)
*A* 0.13

*Q* Please list MIC recorded for the compound COc1cc[n+](Cc2ccc(C=CC3=C(C(=O)O)N4C(=O)[C@@H](NC(=O)/C(=N\OC(C)(C)C(=O)O)c5csc(N)n5)[C@H]4SC3)cc2)cc1OC (mixture of isomers)
*A* 0.5

*Q* Annotate the compound Cc1c[n+](Cc2ccc(C=CC3=C(C(=O)O)N4C(=O)[C@@H](NC(=O)/C(=N\OC(C)(C)C(=O)O)c5csc(N)n5)[C@H]4SC3)cc2)ccc1-c1ccc(O)c(O)c1 (mixture of isomers) with its measured MIC.
*A* 0.25

*Q* Quickly give me recorded MIC for CC(C)(O/N=C(\C(=O)N[C@@H]1C(=O)N2C(C(=O)O)=C(C=Cc3ccc(C[N+]4(C)Cc5cc(O)c(O)cc5C4)cc3)CS[C@H]12)c1csc(N)n1)C(=O)O (mixture of isomers)
*A* 0.25

*Q* Using the record for CC(C)(O/N=C(\C(=O)N[C@@H]1C(=O)N2C(C(=O)O)=C(C=Cc3ccc(C[N+](C)(C)Cc4ccc(O)c(O)c4)cc3)CS[C@H]12)c1csc(N)n1)C(=O)O (mixture of isomers) , state its measured MIC.
*A* 1

*Q* Note MIC for the compound shown: CC(C)(O/N=C(\C(=O)N[C@@H]1C(=O)N2C(C(=O)O)=C(C=Cc3ccc(C[N+](C)(C)CCc4ccc(O)c(O)c4)cc3)CS[C@H]12)c1csc(N)n1)C(=O)O (mixture of isomers)
*A* 0.25

*Q* In one line, give reported MIC of the entry CC(C)(O/N=C(\C(=O)N[C@@H]1C(=O)N2C(C(=O)O)=C(C=Cc3ccc(C[N+]4(C)CCc5ccc(O)c(O)c5C4)cc3)CS[C@H]12)c1csc(N)n1)C(=O)O (mixture of isomers) .
*A* 0.25

*Q* Read off the recorded MIC for CC(C)(O/N=C(\C(=O)N[C@@H]1C(=O)N2C(C(=O)O)=C(C=Cc3ccc(C[N+]4(C)CCc5cc(O)c(O)cc5C4)cc3[N+](=O)[O-])CS[C@H]12)c1csc(N)n1)C(=O)O (mixture of isomers)
*A* 1

*Q* Give MIC for the following compound: "CC(C)(O/N=C(\C(=O)N[C@@H]1C(=O)N2C(C(=O)O)=C(/C=C/c3ccc(C[n+]4ccn(-c5ccc(O)c(O)c5)c4)cc3)CS[C@H]12)c1csc(N)n1)C(=O)O"
*A* 0.25

*Q* Answer with reported MIC of CC(C)(O/N=C(\C(=O)N[C@@H]1C(=O)N2C(C(=O)O)=C(C=Cc3ccc(C[n+]4cccc(-c5ccc(O)c(O)c5)c4)cc3)CS[C@H]12)c1csc(N)n1)C(=O)O (mixture of isomers)
*A* 0.25

*Q* Indicate the recorded MIC value for this compound: CC(C)(O/N=C(\C(=O)N[C@@H]1C(=O)N2C(C(=O)O)=C(C=Cc3ccc(C[N+]4(C)CCc5cc(O)c(O)cc5C4)cc3)CS[C@H]12)c1csc(N)n1)C(=O)O (mixture of isomers)
*A* 0.13
